Values were extracted from patent US20250250357A1.

- test-target: T1, human MSLN-R1-his protein (human, UniProt Q13421 296-390)
- T1 construct: Region 1 of human mesothelin, made in HEK293E cells, His-tagged; also called human MSLN-R1 protein; hMSLN-R1-his; not shown: His tag
- T1 chain: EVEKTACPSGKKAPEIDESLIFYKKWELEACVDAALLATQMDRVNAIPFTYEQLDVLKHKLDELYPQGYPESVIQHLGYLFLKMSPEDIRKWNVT
- method-summary: ELISA on coated MSLN-R1; antibody 0.0001 nM
Measured OD450, listed per entry.
// return numeric value only (unit: OD450, not printed)

{"binder": "S009-F8-32.3 (antibody, human IgG1, kappa, V domains shown) VH: QVQLKESGPGLVAPSQSLSITCTVSGFSLSSYAISWVRQPPGKGLEWLGVIWTGGGTNYNSALKSRLSISKDNSKSQVFLKMNSLQTDDTARFYCARNNYGRLDYAMDYWGQGTSVTVSS VL: DVVMTQTPLSLPVSLGDQASISCRSSQSLVHGNGNTYLHWYLQKPGQSPKLLIYKVSNRFSGVPDRFSGSGSGTDFTLKISRVETEDLGVYFCSQSTHVPFTFGSGTKLEIKR", "OD450, OD450": 0.06}

Query (binder): S009-F8-36.12 (antibody, human IgG1, kappa, V domains shown) VH: EVQLQQSGPELVKPGASVKISCKASGYTFTDYYMNWVKQSHGKSLEWIGDINPNNGGTSYNQKFKGKATLTVDKSSSTAYMELRSLTSEDSAVYYCASWGYGSSSRGYFDYWGQGTTLTVSS VL: QIVLSQSPAILSASPGEKVTMTCRASSSVSYMHWYQQKPGSSPKPWIYATSNLASGVPARFSGSGSGTSYSLTISRVEAEDAATYYCQQWSSNPWTFGGGTKLEIKR ; field requested: OD450
0.04
